# target-desc: T1, SLFN5 1-336 (Schlafen core domain) (Homo sapiens, UniProt Q08AF3 1-336)
# T1 sequence: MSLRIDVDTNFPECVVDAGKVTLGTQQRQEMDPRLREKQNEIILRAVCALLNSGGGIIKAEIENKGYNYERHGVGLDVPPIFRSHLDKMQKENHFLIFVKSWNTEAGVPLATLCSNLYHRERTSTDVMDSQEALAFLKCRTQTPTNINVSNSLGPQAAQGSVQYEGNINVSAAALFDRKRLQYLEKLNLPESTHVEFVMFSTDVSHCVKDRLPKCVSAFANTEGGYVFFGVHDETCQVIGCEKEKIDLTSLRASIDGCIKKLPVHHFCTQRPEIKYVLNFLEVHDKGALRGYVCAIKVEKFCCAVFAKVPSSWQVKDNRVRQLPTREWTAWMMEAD
# assay-remarks: fluorescence anisotropy; FA: 2x buffer 100 mM HEPES pH 8.0, 100 mM NaCl mixed 1:1 with 100 nM (final) FAM ligand, 30 min on ice; EMSA: 25 mM HEPES pH 7.0, 60 mM NaCl, 5% glycerol, 2 mM
# stated-conditions: protein: recombinant; tags: C-terminal His6; label: 5'-FAM
attribute-measured: Kd (µM)
# output: bare number, implied unit µM

INPUT: Entry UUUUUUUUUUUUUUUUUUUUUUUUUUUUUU (ssRNA) [30 rU] : reported Kd = ?
OUTPUT: 5.1

INPUT: GET /values?readout=Kd&item= 60 rU (ssRNA) RNA: UUUUUUUUUGCUUUUUUUUUUUUUUUUUUUUUUUUUUUUUUUUUUUUUUUUUUUUUUUUU
OUTPUT: 3.6

INPUT: Data request, read-out Kd, for 60 dT (ssDNA) DNA: TTTTTTTTTTTTTTTTTTTTTTTTTTTTTTTTTTTTTTTTTTTTTTTTTTTTTTTTTTTT
OUTPUT: 7.8

INPUT: Look at this binder and give its reported Kd. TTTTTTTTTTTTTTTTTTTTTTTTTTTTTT (ssDNA) [30 dT]
OUTPUT: 11
